FACS fluorescence values by entry
Target: human Claudin-6 (CLDN6) (human) (UniProt P56747)
Experiment: FACS, 0.3 ug Ab, 293T clone expressing human CLDN6 (2nd Ab only 768.07)
Just the number.

binder: AB3-chim (antibody, V domains shown) VH: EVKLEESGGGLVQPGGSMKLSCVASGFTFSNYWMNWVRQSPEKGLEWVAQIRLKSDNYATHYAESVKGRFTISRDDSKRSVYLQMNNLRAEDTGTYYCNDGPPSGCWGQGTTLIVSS VL: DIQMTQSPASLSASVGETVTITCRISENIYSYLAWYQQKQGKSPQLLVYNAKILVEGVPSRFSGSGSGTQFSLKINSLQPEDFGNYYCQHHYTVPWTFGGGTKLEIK
measurement label: FACS fluorescence
recorded result: 267000

Note to self: FACS fluorescence recorded for AB3-7 (antibody, V domains shown, humanized; also called AB23; humanized AB3-7) VH: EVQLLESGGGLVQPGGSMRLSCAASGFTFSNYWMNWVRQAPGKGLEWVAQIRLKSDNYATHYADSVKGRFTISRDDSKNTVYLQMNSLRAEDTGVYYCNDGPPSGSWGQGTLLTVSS VL: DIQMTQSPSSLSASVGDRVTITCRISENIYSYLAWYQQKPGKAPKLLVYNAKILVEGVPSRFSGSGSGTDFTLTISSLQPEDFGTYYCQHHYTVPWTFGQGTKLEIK was 106000
